Origin of the recorded values: ChEMBL document CHEMBL1201862

System: SW-620
Assay: NCI tumour cell line growth inhibition, 48 h
Calls of active or inactive are those of the source. Cut-off read from the data, not from the text of the source: active = GI50 up to about 1.1 µM and inactive = higher.
In this section, each of the compounds is paired with its reported GI50.

The reported SW-620 GI50 of C[C@H]1CC[C@@H]2[C@@H](C)C[C@H]3[C@@H]4C(C)(C)OC(=O)[C@]4(C)C(=O)[C@@]23C1=O is > 100 µM (inactive)

GI50 for SW-620 with input COC(=O)N/N=C(\c1nc2ccc(Cl)cc2nc1O)C(O)c1ccc([N+](=O)[O-])cc1 (centres undefined) equals > 100 µM (inactive)

GI50 for SW-620 with input COc1ccc(CCc2nccn2C)cc1OC equals > 100 µM (inactive)

Bench note, SW-620: N#CCC12CC=CCC1=C(O)C(=O)c1ccc(O)cc12 (centres undefined) , GI50 reads > 100 µM (inactive)

Item CC1CC2C3CCC4=CC(=O)C=CC4(C)C3(F)C(O)CC2(C)C1(O)C(=O)CO.Cc1nnc(NS(=O)(=O)c2ccc(/N=N/c3cc(/N=N/c4ccc(S(=O)(=O)Nc5nnc(C)s5)cc4)c4c(NC(=O)C(Cl)Cl)cccc4c3OC(=O)C(Cl)Cl)cc2)s1 was tested on SW-620; the reported GI50 is 22.6 µM (inactive)

SW-620 GI50 of O=C(NCCN(CCNC(=O)c1cccc(=O)n1O)CCNC(=O)c1cccc(=O)n1O)c1cccc(=O)n1O is > 100 µM (inactive)

SW-620 assay, compound COc1ccc2nc3cc(Cl)ccc3c(Nc3ccc(O)c(CN4CCN(C)CC4)c3)c2c1 , recorded GI50 = 1.99 µM (inactive)

Record CC(C)OP(=O)(OC(C)C)/C(=N/Nc1ccc([N+](=O)[O-])cc1)NN has SW-620 GI50 equal to > 100 µM (inactive)

Tested on SW-620: NC(=S)NC/C=C/Cl . Observed GI50: > 100 µM (inactive)

The compound COc1cc(/C=N/c2ccc(Oc3ccc(Cl)cc3)c(Cl)c2)cc(OC)c1OC , tested on SW-620, showed GI50 of 34.2 µM (inactive)

SW-620 assay, compound CC(CC(=O)CO[C@H]1[C@H](O)[C@@H](O)[C@@H](O)[C@@H]2NC(=O)c3c(cc4c(c3O)OCO4)[C@H]21)OC1OC(CO)C(O)C(O)C1O (some centres undefined) , recorded GI50 = 0.374 µM (active)

Noted GI50 for CCC1CN2CCc3cc(OC)c(OC)cc3C2CC1CC1c2cc(OC)c(OC)cc2CCN1C(=O)C(Cc1c[nH]c2ccccc12)NC(=O)OC(C)(C)C (centres undefined) , tested on SW-620: 2.82 µM (inactive)

---

As shown below, each of these molecules has a reported GI50 value.
System: HOP-62
Assay: NCI tumour cell line growth inhibition, 48 h
Calls of active or inactive are those of the source. Cut-off read from the data, not from the text of the source: active = GI50 up to about 1.1 µM and inactive = higher.

Known GI50 results, listed for orientation:
molecule: NC1Cc2ccccc2OC1=O (configuration not stated)
tgt: HOP-62
GI50: > 100 µM (inactive)

molecule: CN1c2ccccc2C2=C(c3ccccc3)CC[C@@H](C(=O)N3C4CC5CC[C@@]4(CS3(=O)=O)C5(C)C)[C@@H]21 (some centres not stated)
tgt: HOP-62
GI50: > 100 µM (inactive)

molecule: CC1CC(=O)N2CCCNC2=C1C#N (configuration not stated)
tgt: HOP-62
GI50: > 100 µM (inactive)

molecule: O=S(=O)(c1ccccc1)C1(CCC2OCCO2)C=CC2(CC1)OCCO2 (configuration not stated)
tgt: HOP-62
GI50: > 100 µM (inactive)

molecule: O=C(O)CC1(CC(=O)O)Nc2ccccc2SC1=O
tgt: HOP-62
GI50: > 100 µM (inactive)

molecule: C[C@H]1[C@H](N2CCCC2)O[Si](C(C)(C)C)(C(C)(C)C)[C@@H]1C
tgt: HOP-62
GI50: > 100 µM (inactive)

molecule: Cc1cn(C2OC(CO)C(O)C2F)c(=O)[nH]c1=O (configuration not stated)
tgt: HOP-62
GI50: 95.3 µM (inactive)

molecule: CCOC(=O)N(C)C1(c2ccccc2)CCN(CCCC(=O)c2ccc(F)cc2)CC1
tgt: HOP-62
GI50: 38.5 µM (inactive)

molecule: NCc1ccc(-c2ccc(CN)s2)s1
tgt: HOP-62
GI50: > 100 µM (inactive)

molecule: COc1ccc2c(c1)C(=O)OCCC2
tgt: HOP-62
GI50: > 100 µM (inactive)

// assay HOP-62, entry O=C(O)c1nc2ccc(Cl)cc2[nH]c1=O , GI50 value = > 100 µM (inactive)

The value of GI50 recorded for CN1N=C(N)c2cn(C3OC(COP(=O)(O)O)C(O)C3O)c3ncnc1c23 (configuration not stated) when tested on HOP-62 reads 23.5 µM (inactive)
